- Test system: PPARg DBDmut IVT, anti-PPARg (DBD mutation: PPARg1 K132A/R137A, NR concentration 270 nM)
- method.notes: PBM binding z-score (relative to random genomic background probes); higher = stronger binding; sequences stand for … in GC…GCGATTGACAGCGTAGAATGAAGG
assay.metric: PBM binding z-score
Output spec: single numeric token, no unit.

Please review the entries below; each comes with its answer.
*Q* Determine from records and report PBM binding z-score for "CTCGAAAGGTCGTGCTCAGGTGTGTATACCAAAC"
*A* -0.156

*Q* Determine from records and report PBM binding z-score for "CTACCAAGGTGAACACGGTCGTTGATTACTATTC"
*A* -0.0431

*Q* Determine from records and report PBM binding z-score for "CAAAGTAGGTCAAAGGTCAAAGTCGAGCCAACCA"
*A* 2.43

*Q* Determine from records and report PBM binding z-score for "GGAACGAGGGCAAAGTTGATAGCGTCTGTCGACG"
*A* -0.0322

*Q* Determine from records and report PBM binding z-score for "CAACCTAGGTCACAGAGGTCAAAGTCCGTGCGTA"
*A* -0.0572

Next:
*Q* Determine from records and report PBM binding z-score for "CAAACTAGGTCAAGGTCAACGTCGGTTTGTGCCA"
*A* 2.23

*Q* Determine from records and report PBM binding z-score for "TTACCAAGGTGAGCTGAGGTCTTTGATCCAACTC"
*A* -0.0335

*Q* Determine from records and report PBM binding z-score for "GCTGCTAGGTCAACTGATGGTTAGCTAAAGCTCG"
*A* -0.602

* * *

- Test system: FXR:RXRa (NR concentration 270 nM, RXRa partner concentration 90 nM)
- method.notes: PBM binding z-score (relative to random genomic background probes); higher = stronger binding; sequences stand for … in GC…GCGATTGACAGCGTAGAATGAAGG
Note that class boundaries on PBM binding z-score are bottom end = under 0.7, midrange = from 0.7 up to 5, top end = 5 and over

*Q* Classify this sequence: "CAAACTAGGTTAAGAGGTCAAAGTCCGCTTCCCG"
*A* top end

*Q* Classify this sequence: "CGAACTAGGTCAGAACAGGACAGTGCAGGATGAT"
*A* midrange

*Q* Classify this sequence: "AATACAGGGTCACTAGCCCAGAGTAGGTACGAAT"
*A* top end

Next:
*Q* Classify this sequence: "CCTAGCAGCCCAATCTGGGTCACTCAAGGCTTGA"
*A* bottom end

*Q* Classify this sequence: "AGAATGAGGTTATACGTAGATCAAGGAAGAAAGT"
*A* midrange

*Q* Classify this sequence: "CGTCCAAGGTCAAGGCTAGGTCAGTGAAAGCATT"
*A* top end

*Q* Classify this sequence: "TCTTGTAGATCAGCAGGTTACGAAAGCTGGCCAA"
*A* bottom end

*Q* Classify this sequence: "CGAACTAGGTCATTGACAGTACAGTGAATAGTAA"
*A* midrange

*Q* Classify this sequence: "TCTATTAGTTGATGAGGGCAACCGAAACAGCGGA"
*A* bottom end

*Q* Classify this sequence: "TCTGCTAGGCCAGTTGGTCAGCTAACGAGCTGCC"
*A* bottom end

*Q* Classify this sequence: "CAACCTAGGTCAAGAGGTCAAAGTCCGCTTCCCG"
*A* top end

* * *

- System: LXRb homodimer (NR concentration 270 nM)
- method.notes: PBM binding z-score (relative to random genomic background probes); higher = stronger binding; sequences stand for … in GC…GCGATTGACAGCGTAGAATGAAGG
assay.metric: PBM binding z-score
Output spec: single numeric token, no unit.

Please review the entries below; each comes with its answer.
*Q* Determine from records and report PBM binding z-score for "CTCGAAAGGTGGGTTGAGGTGAGTATACGGATAA"
*A* 0.353

*Q* Determine from records and report PBM binding z-score for "ATATGTAGGTTATCGGGTAATTCAGTTTGCGCAT"
*A* 0.955

*Q* Determine from records and report PBM binding z-score for "CGAACTAGGTCATACAGGACAGTGAATACATTGA"
*A* 0.184

Next:
*Q* Determine from records and report PBM binding z-score for "GGAACGAGGGCAAACTTGATAGCATCTGTCGACG"
*A* -0.25

*Q* Determine from records and report PBM binding z-score for "CGTCCAAGGTCAGAGAGGTCAGTGATTGCCGAGT"
*A* 0.656

*Q* Determine from records and report PBM binding z-score for "CAAACTGGGTCACAGAGGTCAAAGTCCGTGCGTA"
*A* 1.68
